Data provenance is a melting point compilation (Tetko et al.; mined from patent text by program, amines drawn as free bases though some values may be those of a salt).

Recorded measurements of melting point, one per entry

[
  {
    "compound": "CC1(N)CN(C(=O)Nc2ccc(C(F)(F)F)cc2)N=C1c1ccc(Cl)cc1 (centres undefined)",
    "result type": "melting point",
    "endpoint result": "165 to 167 °C"
  }
]

Item under review: COc1ccccc1N1CCN(CCC(C(N)=O)(c2ccccn2)c2ccccc2[N+](=O)[O-])CC1 (centres undefined) . Reported melting point?
63 to 72 °C

Fill in the blank: the reported melting point of O=C(Nc1ccc(C(CC2CCCC2)C(=O)Nc2nccs2)cc1)c1ccc([N+](=O)[O-])cc1 (centres undefined) is ____.
236 to 238 °C

Quick one: melting point of CCn1ncc(C(=O)c2cc(C)c3c(c2C)C(=O)C(C)(C)CS3(=O)=O)c1O ?
160 to 163 °C

Please look up its melting point: CCCCCCS(=O)(=O)c1nn2c(=O)cc(C#N)nc2s1
144 to 146 °C
